experiment: yeast display, Sf9 membrane polyspecificity reagent, FACS + sequencing; frameworks hold sequencing errors

INPUT_SEQUENCE	polyreactivity (PSR sort gate)
QVQLVESGGGLVQAGGSLRLSCAASGFTFLYNARGWYIQAPGKERELVASINSGGSTNYADSVKGRFTISRDNAKNTVYLQKNSLKPEDTAVYYWNAKRHVRKGDYWGQGTQVTVSS	low polyreactivity
QDQLVESGGGLVQAGRSLRLSCAASGSIFTVYAMGWYRQAPGKEWELVASISTGGSTNYADSVKGRFTISRDNAKNTVYLPMISLKPEDTAVYYCAATGWAYGYGYGYWGQGTQVTVSS	low polyreactivity
QVQLVESGGGLVQAGGSLRLSCAASGSMLKSYAMGWYIQAPGKESELVAAITYRDGSTYYADSVKGRFTISRDNAKNTVYLQMNSLKPEDTAVYYCNARWARGRYAQYGGLDREYDYWGQGTQVTVSS	high polyreactivity
QLQLVESGGGLVQAGGSLRLSCAASGIIFDFYAMGWYRQAPGKERELVAAITSSGGSTYYADSVKGRFTISRDNAKNTVYLQMNSLKPEDTAVYYCAADPWFYGYYDMDYWGQGTQVTVSS	low polyreactivity
QVQLVESGGGLVQAGGSLRLSCAASGRTFRRYAMGWYRQAPGKERELVAAISRSGGSTYYADSVKGRFTISRDNAKNTVYLQMNSLKPEETAVYYCAAGIWSKLVEPFDYWGQGTQVTVSS	high polyreactivity

----------
assay: yeast display, Sf9 membrane polyspecificity reagent, FACS + sequencing; frameworks hold sequencing errors

INPUT_SEQUENCE	polyreactivity (PSR sort gate)
QVQLVESGGGLVQAGGSLRLSCAASGITFIRYAMGWYRQAPGKERELVAVITRSGGRTYYADSVKGRFTISRDNAKNTVYLQMNSLKPEDTAVYYCAARAYGYDEYEYWGQGTQVTVSS	high polyreactivity
QVQLVESGGGLVQAGGSLRLSCAASGSTFWSYAMGWYRQAPGKEREFVAAISRSGDSTYYADSVKGRFTISRDNAKNTVYLQMNSLNPEDTAVYYCNAKLVRRSYGSYYYTYDYWGQGSQVTVSS	high polyreactivity
QFQLVESGGGLVQAGGSLRLSCAASGSTFSNYAMGWYRQAPGKERELVAAISSRGGSTYYADSVKGRFTISRDHAKNTVNLQMISLKPEDTAVYYCATYYVYKLYYWGQGTQVTVSS	high polyreactivity
QVQLEESGGGIVQAGGSLRLSCAASGSTFNYYAMGWYRQAPGKERELVAAINSNGGSTYYADSVKGRFTISRDNAKNTVYLQMNSPKPEDTAVYLCAADISPYDYDYWGQGTQVTVSS	high polyreactivity
QVQLVESGGGLVQAGGSLRLSCAASGSTFYVYAMGWYRQAPGKERELVAAITSGTSTYYADSVKGRFTISRDNAKNTVYLQMNSLKPEDTAVYYCAAYSYYYRFPYYYWGQGTQVTVSS	high polyreactivity

----------
experiment: yeast display, Sf9 membrane polyspecificity reagent, FACS + sequencing; frameworks hold sequencing errors

INPUT_SEQUENCE	polyreactivity (PSR sort gate)
QVQLVESGGGLVQAGGSLRLSCAASGIIFSGNAMGWYRQAPGKERELVAAITRGGRTYYADSVKGRFTISRDNAKNTVYLQMNSLKPEDTAVYYCAAGYPYSYRDYYYWGQGTQVTVSS	high polyreactivity
QVQLVESGGGLVQAEGSLRLSCAASGFIFRYNAMGWYRQAPGKERELVAAITSGGSTNYADSVKGRFTISRDNAKNTVYLQMNSLKPEDTAVYYCNKYRPYGRIYHLAYGRDYWGQGTQVTVSS	high polyreactivity
QVQLVESGGGLVQAGGSLRLSCAASGRTFDDYPMGWYRQAPGKDSELVAAITRRGGSTYYADSVKGRFTISRDNAKNTVYLQMNSLNPEDTAVYYCAADLFFKARGYDYWGQGTQVTVST	high polyreactivity
